tested on: Cdk1 phosphorylated on tyrosine 15; assay: High-content imaging of pCdk1 Y15 by immunofluorescence in ACHN cells; format: cell-based; conditions: Homo sapiens, high-content imaging (IF), 4 h, 7 to 5000 nM, read-out: CDK1 Tyr15 Phosphorylation EC50 (IC50)
Measure name: EC50

Prompt: // returns reported EC50 for input COc1nc(Nc2ccc(C3CCN(C)CC3)c(C)c2)ncc1C(=O)Nc1ccccc1C(F)(F)F [Compound 114]
Completion: > 1000 nM

Prompt: Entry under review: COc1nc(Nc2ccc(O[C@H]3CCN(C)C3)c(C)c2)ncc1C(=O)Nc1c(Cl)cccc1Cl [Compound 154] . Reported EC50?
Completion: 100 to 500 nM

Prompt: Endpoint output: EC50 of COc1nc(Nc2ccc(O[C@@H]3CCN(C)C3)c(C)c2)ncc1C(=O)Nc1c(Cl)cccc1Cl [Compound 146] . Value?
Completion: ≤ 100 nM
